Catalogue of DC50 readings, one per entry.
- TESTED TARGET: Cyclin E1 (Homo sapiens, UniProt P24864+Q96SW2)
- Sequence (P24864 whole entry): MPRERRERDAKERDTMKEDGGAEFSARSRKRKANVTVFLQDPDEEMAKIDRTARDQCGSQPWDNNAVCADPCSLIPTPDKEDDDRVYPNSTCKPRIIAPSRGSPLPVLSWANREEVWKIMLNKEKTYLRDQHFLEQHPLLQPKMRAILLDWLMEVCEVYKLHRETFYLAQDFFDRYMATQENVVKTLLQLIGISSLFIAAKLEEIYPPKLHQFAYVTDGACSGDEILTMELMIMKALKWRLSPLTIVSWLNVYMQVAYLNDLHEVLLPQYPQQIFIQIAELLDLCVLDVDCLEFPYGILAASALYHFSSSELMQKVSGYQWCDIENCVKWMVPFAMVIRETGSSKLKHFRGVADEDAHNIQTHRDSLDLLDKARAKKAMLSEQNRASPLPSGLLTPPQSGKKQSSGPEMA
- Sequence (Q96SW2 whole entry): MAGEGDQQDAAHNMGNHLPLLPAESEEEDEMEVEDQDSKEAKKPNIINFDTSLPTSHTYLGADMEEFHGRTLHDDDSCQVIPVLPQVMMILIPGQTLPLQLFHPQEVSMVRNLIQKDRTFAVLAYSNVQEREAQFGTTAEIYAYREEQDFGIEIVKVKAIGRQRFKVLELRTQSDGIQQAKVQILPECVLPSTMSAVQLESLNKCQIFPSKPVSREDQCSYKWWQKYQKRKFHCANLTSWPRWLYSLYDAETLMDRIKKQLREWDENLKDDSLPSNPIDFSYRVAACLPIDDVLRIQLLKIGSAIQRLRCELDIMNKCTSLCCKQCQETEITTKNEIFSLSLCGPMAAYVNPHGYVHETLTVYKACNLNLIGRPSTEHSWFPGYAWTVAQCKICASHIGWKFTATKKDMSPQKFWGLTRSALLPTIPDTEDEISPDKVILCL
- Sequence (Q16531 whole entry partner): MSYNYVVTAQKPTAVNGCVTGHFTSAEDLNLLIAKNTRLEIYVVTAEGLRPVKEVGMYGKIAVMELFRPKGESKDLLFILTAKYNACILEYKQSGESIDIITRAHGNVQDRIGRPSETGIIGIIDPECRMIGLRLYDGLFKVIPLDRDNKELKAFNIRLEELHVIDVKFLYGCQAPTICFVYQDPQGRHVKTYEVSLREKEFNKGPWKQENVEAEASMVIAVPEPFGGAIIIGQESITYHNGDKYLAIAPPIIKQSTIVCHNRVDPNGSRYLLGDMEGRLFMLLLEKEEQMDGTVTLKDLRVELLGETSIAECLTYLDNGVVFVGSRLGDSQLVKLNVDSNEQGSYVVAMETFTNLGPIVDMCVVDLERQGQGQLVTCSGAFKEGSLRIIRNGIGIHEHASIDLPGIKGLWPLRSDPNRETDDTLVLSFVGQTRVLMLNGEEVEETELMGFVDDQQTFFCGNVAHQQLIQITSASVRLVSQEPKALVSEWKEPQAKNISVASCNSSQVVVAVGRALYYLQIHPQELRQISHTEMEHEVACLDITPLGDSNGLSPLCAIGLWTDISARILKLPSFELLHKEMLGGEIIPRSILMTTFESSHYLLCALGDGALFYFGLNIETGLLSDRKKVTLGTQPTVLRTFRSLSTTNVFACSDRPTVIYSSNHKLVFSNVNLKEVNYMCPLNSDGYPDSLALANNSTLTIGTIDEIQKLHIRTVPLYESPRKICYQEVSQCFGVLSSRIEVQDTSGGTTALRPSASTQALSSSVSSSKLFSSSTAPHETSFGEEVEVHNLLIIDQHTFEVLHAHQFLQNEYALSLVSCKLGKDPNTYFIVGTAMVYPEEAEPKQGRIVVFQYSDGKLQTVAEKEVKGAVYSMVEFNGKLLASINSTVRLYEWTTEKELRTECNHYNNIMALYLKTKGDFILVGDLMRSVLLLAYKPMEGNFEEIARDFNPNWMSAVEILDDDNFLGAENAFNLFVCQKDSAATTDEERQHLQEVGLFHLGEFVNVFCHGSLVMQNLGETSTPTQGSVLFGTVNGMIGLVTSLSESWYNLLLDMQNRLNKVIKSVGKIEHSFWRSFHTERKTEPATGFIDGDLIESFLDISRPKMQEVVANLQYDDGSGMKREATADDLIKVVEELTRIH
- MEASUREMENT DESCRIPTION: Cyclin E1 Cellular Degradation Assay (MSD)
- Assay type: cell-based
- Set-up: endogenous in cells; host or cells: OVCAR3
- CONDITION CONTEXT: Cyclin E1 cellular degradation
ASSAY METRIC: DC50 (nM)

COMPOUND: CCOc1c(COC(=O)Nc2ccc(Oc3ccc(F)c(F)c3)cc2)ccc2c1C(=O)N(C1CCC(=O)NC1=O)C2 (centres unmarked) [Example 53]
MEASURED NUMBER: 176
//
COMPOUND: COc1c(COC(=O)Nc2ccc(Oc3ccc(F)cc3F)cc2F)ccc2c1C(=O)N(C1CCC(=O)NC1=O)C2 (centres unmarked) [Example 30]
MEASURED NUMBER: 672
//
COMPOUND: COc1c(COC(=O)Nc2ccc(Oc3cccc(Cl)c3Cl)cc2F)ccc2c1C(=O)N(C1CCC(=O)NC1=O)C2 (centres unmarked) [Example 116]
MEASURED NUMBER: 87
//
COMPOUND: COc1c(COC(=O)Nc2ccc(Oc3ccc(Cl)c(F)c3)cc2F)ccc2c1C(=O)N(C1CCC(=O)NC1=O)C2 (centres unmarked) [Example 91]
MEASURED NUMBER: 223
//
COMPOUND: COc1c(COC(=O)Nc2ccc(Oc3cccc(F)c3)cc2F)ccc2c1C(=O)N(C1CCC(=O)NC1=O)C2 (centres unmarked) [Example 16]
MEASURED NUMBER: 161
//
COMPOUND: COc1cc(Oc2cc(F)c(F)cc2Cl)ccc1NC(=O)OCc1ccc2c(c1OC)C(=O)N(C1CCC(=O)NC1=O)C2 (centres unmarked) [Example 108]
MEASURED NUMBER: 99
//
COMPOUND: COc1cc(Oc2ccc(F)c(F)c2)ccc1NC(=O)OCc1ccc2c(c1OC)C(=O)N(C1CCC(=O)NC1=O)C2 (centres unmarked) [Example 47]
MEASURED NUMBER: 320
//
COMPOUND: COc1c(COC(=O)Nc2ccc(Oc3ccccc3C)cc2)ccc2c1C(=O)N(C1CCC(=O)NC1=O)C2 (centres unmarked) [Example 92]
MEASURED NUMBER: 170
//
COMPOUND: O=C1CCC(N2Cc3ccc(COC(=O)Nc4ccc(Oc5ccc(F)c(F)c5)cc4)c(O[C@@H]4CCOC4)c3C2=O)C(=O)N1 (some centres unmarked) [Example 153]
MEASURED NUMBER: 84
//
COMPOUND: O=C1CCC(N2Cc3ccc(COC(=O)Nc4ccc(Oc5ccc(F)c(F)c5)cc4)c(Oc4cccnc4)c3C2=O)C(=O)N1 (centres unmarked) [Example 172]
MEASURED NUMBER: 79
//
COMPOUND: CC(C)(O)COc1c(COC(=O)Nc2ccc(Oc3ccc(F)c(F)c3)cc2F)ccc2c1C(=O)N(C1CCC(=O)NC1=O)C2 (centres unmarked) [Example 161]
MEASURED NUMBER: 62
//
COMPOUND: COc1c(COC(=O)Nc2ccc(Cc3ccc(F)c(Cl)c3)cc2)ccc2c1C(=O)N(C1CCC(=O)NC1=O)C2 (centres unmarked) [Example 21]
MEASURED NUMBER: 40
//
COMPOUND: CC(C)Oc1c(COC(=O)Nc2ccc(Oc3ccccc3)cc2)ccc2c1C(=O)N(C1CCC(=O)NC1=O)C2 (centres unmarked) [Example 57]
MEASURED NUMBER: 128
//
COMPOUND: COc1c(COC(=O)Nc2ccc(Oc3ccc(F)c(F)c3)cc2)ccc2c1C(=O)N(C1CCC(=O)NC1=O)C2 (centres unmarked) [Example 1]
MEASURED NUMBER: 199

====

- TESTED TARGET: GSPT1 (Homo sapiens, UniProt P15170+Q96SW2)
- Sequence (P15170 whole entry, one chain of several): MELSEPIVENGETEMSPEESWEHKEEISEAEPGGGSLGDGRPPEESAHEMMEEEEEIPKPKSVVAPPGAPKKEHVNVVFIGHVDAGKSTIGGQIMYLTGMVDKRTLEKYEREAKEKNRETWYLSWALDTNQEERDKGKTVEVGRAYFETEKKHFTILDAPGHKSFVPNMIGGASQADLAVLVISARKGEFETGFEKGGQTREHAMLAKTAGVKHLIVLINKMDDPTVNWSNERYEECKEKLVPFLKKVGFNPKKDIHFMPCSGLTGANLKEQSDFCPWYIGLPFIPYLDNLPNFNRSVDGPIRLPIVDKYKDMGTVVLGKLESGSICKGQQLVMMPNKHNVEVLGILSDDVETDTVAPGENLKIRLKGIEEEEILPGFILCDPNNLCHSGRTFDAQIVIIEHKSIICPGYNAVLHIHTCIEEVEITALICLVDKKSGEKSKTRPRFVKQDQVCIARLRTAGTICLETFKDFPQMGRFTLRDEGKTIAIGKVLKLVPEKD
- MEASUREMENT DESCRIPTION: GSPT1 Cellular Degradation Assay (DF15-GSPT1-ePL)
- Assay type: cell-based
- Set-up: expressed in transfected cells
- CONDITION CONTEXT: DF15-GSPT1-ePL cells, 20 hours
Label class 1 for high-side Dmax (at or above 20%) and class 0 for low-side Dmax (below it).

COMPOUND: COc1c(COC(=O)Nc2ccc(Oc3ccc(F)cc3C(F)F)cc2)ccc2c1C(=O)N(C1CCC(=O)NC1=O)C2 (stereo not drawn) [Example 89]
CLASSIFICATION: class 1

COMPOUND: O=C1CCC(N2Cc3ccc(COC(=O)Nc4ccc(Oc5ccc(F)c(F)c5)cc4)c(O[C@H]4CC[C@@H](O)CC4)c3C2=O)C(=O)N1 (stereo partly drawn) [Example 167]
CLASSIFICATION: class 0

COMPOUND: COc1c(COC(=O)Nc2ccc(Oc3cccc(Br)c3)cc2)ccc2c1C(=O)N(C1CCC(=O)NC1=O)C2 (stereo not drawn) [Example 10]
CLASSIFICATION: class 1

COMPOUND: CC(C)Oc1c(COC(=O)Nc2ccc(Oc3ccc(F)c(F)c3)cc2)ccc2c1C(=O)N([C@H]1CCC(=O)NC1=O)C2 (single isomer, unassigned) [Example 125]
CLASSIFICATION: class 0

COMPOUND: COc1c(COC(=O)Nc2ccc(Oc3ccccc3Cl)cc2F)ccc2c1C(=O)N(C1CCC(=O)NC1=O)C2 (stereo not drawn) [Example 107]
CLASSIFICATION: class 1

COMPOUND: O=C1CCC(N2Cc3ccc(COC(=O)Nc4ccc(Oc5ccc(F)cc5F)cc4)c(OC4CCOCC4)c3C2=O)C(=O)N1 (stereo not drawn) [Example 139]
CLASSIFICATION: class 0

COMPOUND: COc1c(COC(=O)Nc2ccc(Oc3ccc(Cl)c(Cl)c3)cc2F)ccc2c1C(=O)N(C1CCC(=O)NC1=O)C2 (stereo not drawn) [Example 117]
CLASSIFICATION: class 1

COMPOUND: COc1c(COC(=O)Nc2ccc(Oc3ccc(F)cc3)cc2F)ccc2c1C(=O)N(C1CCC(=O)NC1=O)C2 (stereo not drawn) [Example 28]
CLASSIFICATION: class 1

COMPOUND: O=C1CCC(N2Cc3ccc(COC(=O)Nc4ccc(Oc5ccc(F)c(F)c5)cc4)c(OC4CCCC4)c3C2=O)C(=O)N1 (stereo not drawn) [Example 151]
CLASSIFICATION: class 0

COMPOUND: CC(C)Oc1c(COC(=O)Nc2ccc(Oc3ccccc3)cc2)ccc2c1C(=O)N(C1CCC(=O)NC1=O)C2 (stereo not drawn) [Example 57]
CLASSIFICATION: class 1

COMPOUND: CC(C)Oc1c(COC(=O)Nc2ccc(Oc3cccc(Cl)c3)cc2)ccc2c1C(=O)N(C1CCC(=O)NC1=O)C2 (stereo not drawn) [Example 58]
CLASSIFICATION: class 1

COMPOUND: O=C1CCC(N2Cc3ccc(COC(=O)Nc4ccc(Oc5cccc(F)c5)cc4)c(O[C@@H]4CCCOC4)c3C2=O)C(=O)N1 (stereo partly drawn) [Example 143]
CLASSIFICATION: class 0

COMPOUND: COc1c(COC(=O)Nc2ccc(Oc3ccc(F)c(C)c3)cc2F)ccc2c1C(=O)N(C1CCC(=O)NC1=O)C2 (stereo not drawn) [Example 99]
CLASSIFICATION: class 1

COMPOUND: O=C1CCC(N2Cc3ccc(COC(=O)Nc4ccc(Oc5ccc(F)c(F)c5)cc4)c(OC4CCOCC4)c3C2=O)C(=O)N1 (stereo not drawn) [Example 130]
CLASSIFICATION: class 0

COMPOUND: COc1c(COC(=O)Nc2ccc(Oc3ccc(F)cc3)cc2)ccc2c1C(=O)N(C1CCC(=O)NC1=O)C2 (stereo not drawn) [Example 84]
CLASSIFICATION: class 1

COMPOUND: O=C1CCC(N2Cc3ccc(COC(=O)Nc4ccc(Oc5ccccc5)cc4)c(OC(F)F)c3C2=O)C(=O)N1 (stereo not drawn) [Example 60]
CLASSIFICATION: class 0

COMPOUND: COc1cc(Oc2ccc(F)c(C)c2)ccc1NC(=O)OCc1ccc2c(c1OC)C(=O)N(C1CCC(=O)NC1=O)C2 (stereo not drawn) [Example 97]
CLASSIFICATION: class 1

COMPOUND: COc1c(COC(=O)Nc2ccc(Oc3ccc(F)c(F)c3)cc2C)ccc2c1C(=O)N(C1CCC(=O)NC1=O)C2 (stereo not drawn) [Example 38]
CLASSIFICATION: class 1

COMPOUND: CC(C)Oc1c(COC(=O)Nc2ccc(Oc3cccc(F)c3)cc2)ccc2c1C(=O)N(C1CCC(=O)NC1=O)C2 (stereo not drawn) [Example 123]
CLASSIFICATION: class 0

COMPOUND: COc1c(COC(=O)Nc2ccc(Oc3ccc(F)c(Cl)c3)cc2C)ccc2c1C(=O)N(C1CCC(=O)NC1=O)C2 (stereo not drawn) [Example 83]
CLASSIFICATION: class 1

COMPOUND: COc1c(COC(=O)Nc2ccc(Oc3ccc(F)c(F)c3)cc2)ccc2c1C(=O)N([C@@H]1CCC(=O)NC1=O)C2 (single isomer, unassigned) [Example 36]
CLASSIFICATION: class 1

COMPOUND: CCOc1c(COC(=O)Nc2ccc(Oc3cccc(F)c3)cc2)ccc2c1C(=O)N(C1CCC(=O)NC1=O)C2 (stereo not drawn) [Example 55]
CLASSIFICATION: class 1

COMPOUND: COc1c(COC(=O)Nc2ccc(Cc3cccc(F)c3)cc2)ccc2c1C(=O)N(C1CCC(=O)NC1=O)C2 (stereo not drawn) [Example 6]
CLASSIFICATION: class 0

COMPOUND: COc1c(COC(=O)Nc2ccc(Oc3cc(C)cc(C)c3)cc2)ccc2c1C(=O)N(C1CCC(=O)NC1=O)C2 (stereo not drawn) [Example 12]
CLASSIFICATION: class 0

COMPOUND: O=C1CCC(N2Cc3ccc(COC(=O)Nc4ccc(Oc5ccc(F)cc5F)cc4)c(O[C@@H]4CCCOC4)c3C2=O)C(=O)N1 (stereo partly drawn) [Example 145]
CLASSIFICATION: class 0

Attribution: patent US20250084056A1
